- assayed_system: T1, human glucose-dependent insulinotropic polypeptide receptor (human, UniProt P48546 22-466)
- T1 sequence (looked up): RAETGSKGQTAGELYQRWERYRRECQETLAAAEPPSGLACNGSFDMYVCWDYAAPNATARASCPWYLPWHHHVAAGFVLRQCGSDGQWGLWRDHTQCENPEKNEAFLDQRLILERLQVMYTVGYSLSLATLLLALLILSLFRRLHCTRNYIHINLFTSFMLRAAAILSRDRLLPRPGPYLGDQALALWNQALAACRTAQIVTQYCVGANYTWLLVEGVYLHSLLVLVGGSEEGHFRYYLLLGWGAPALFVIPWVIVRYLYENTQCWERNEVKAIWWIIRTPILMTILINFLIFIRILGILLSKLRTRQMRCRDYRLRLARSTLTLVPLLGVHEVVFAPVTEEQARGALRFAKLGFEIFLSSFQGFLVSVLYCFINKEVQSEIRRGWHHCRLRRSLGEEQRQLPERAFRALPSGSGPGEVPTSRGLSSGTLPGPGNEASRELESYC
- experimental_protocol: cell-based or functional assay
Listed here: items and their measured Emax, % (intracellular cAMP).
measured_attribute: Emax, % (intracellular cAMP) (%)

>  <binder>
YXEGTFTSDYSIXLDKIAQKAFVQWLIAGGPSSGAPPPS (Aib at positions 2 and 13; K at position 20 conjugated at the epsilon-amino group with ([2-(2-Amino-ethoxy)-ethoxy]-acetyl)2-(γGlu)1-CO-(CH2)16-CO2H; C-terminal primary amide, Synthetic acylated peptide, trifluoroacetate salt) [Example 3]

>  <number>
106

$$$$
>  <binder>
YXEGTFTSDYSIXLDKIAQKAXVQWLIAGGPSSGAPPPS (Aib at positions 2 and 13; K at position 20 conjugated at the epsilon-amino group with ([2-(2-Amino-ethoxy)-ethoxy]-acetyl)2-(γGlu)1-CO-(CH2)16-CO2H; 1-Nal at position 22; C-terminal primary amide, Synthetic acylated peptide, trifluoroacetate salt) [Example 6]

>  <number>
106

$$$$
>  <binder>
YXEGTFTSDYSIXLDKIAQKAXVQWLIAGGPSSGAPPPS (Aib at positions 2 and 13; K at position 20 conjugated at the epsilon-amino group with ([2-(2-Amino-ethoxy)-ethoxy]-acetyl)2-(γGlu)1-CO-(CH2)18-CO2H; 1-Nal at position 22; C-terminal primary amide, Synthetic acylated peptide, trifluoroacetate salt) [Example 8]

>  <number>
108

$$$$
>  <binder>
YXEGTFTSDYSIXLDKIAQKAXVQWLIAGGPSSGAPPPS (Aib at positions 2 and 13; K at position 20 conjugated at the epsilon-amino group with ([2-(2-Amino-ethoxy)-ethoxy]-acetyl)2-(γGlu)2-CO-(CH2)18-CO2H; 1-Nal at position 22; C-terminal primary amide, Synthetic acylated peptide, trifluoroacetate salt) [Example 2]

>  <number>
94.7

$$$$
>  <binder>
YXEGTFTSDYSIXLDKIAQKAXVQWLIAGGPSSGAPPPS (Aib at positions 2 and 13; K at position 20 conjugated at the epsilon-amino group with ([2-(2-Amino-ethoxy)-ethoxy]-acetyl)2-(γGlu)2-CO-(CH2)16-CO2H; 1-Nal at position 22; C-terminal primary amide, Synthetic acylated peptide, trifluoroacetate salt) [Example 7]

>  <number>
106

$$$$
>  <binder>
YXEGTFTSDYSIXLDKIAQKAFVQWLIAGGPSSGAPPPS (Aib at positions 2 and 13; K at position 20 conjugated at the epsilon-amino group with ([2-(2-Amino-ethoxy)-ethoxy]-acetyl)2-(γGlu)2-CO-(CH2)18-CO2H; C-terminal primary amide, Synthetic acylated peptide, trifluoroacetate salt) [Example 5]

>  <number>
105

$$$$
>  <binder>
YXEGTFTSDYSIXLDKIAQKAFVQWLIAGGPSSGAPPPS (Aib at positions 2 and 13; K at position 20 conjugated at the epsilon-amino group with ([2-(2-Amino-ethoxy)-ethoxy]-acetyl)2-(γGlu)1-CO-(CH2)18-CO2H; C-terminal primary amide) [Example 1]

>  <number>
97.9

$$$$

All figures here come from patent US20160199438A1.
